FYI, the data here is from patent US20110059953A1.

Give measured ΔTm for each item. Keep answers brief.
# test target: T-p53C-Y220C (Homo sapiens, UniProt P04637, M133L/N239Y/N268D/V203A/Y220C)
# Construct: For all other experiments, the DNA coding for residues 94-312 of T-p53C was inserted into a modified pET24a(+) vector; 6xHis tag + B. stearothermophilus dihydrolipoyl acetyltransferase lipoyl domain (aa 1-85) + TEV site (N, cleaved yes); made in house; host or cells: Escherichia coli BL21 (DE3) or C41 (DE3)
# experiment description: Thermal denaturation using capillary DSC
# Assay type: binding
# measurement setup: increase in Tm on adding 250 μM of the test compound; 20 μM protein
The reply should read as a number followed by its unit.

Below are worked cases with known answers.
- compound: "CCNC(=S)Nc1ccc2c(c1)c1ccccc1n2CC"
  ΔTm: "0.41 °C"
- compound: "CCn1c2ccccc2c2cc(NC(C)C(=O)NC(N)=O)ccc21 (stereo not drawn)"
  ΔTm: "0.63 °C"
- compound: "CCn1c2ccccc2c2cc(NC(=O)COC(=O)Cn3cnc4c3c(=O)n(C)c(=O)n4C)ccc21"
  ΔTm: "0.39 °C"

Respectfully, I request ΔTm for each entry included below.
1. COc1ccc(N2CCN(Cc3cc4c(cc3O)[nH]c3ccccc34)CC2)cc1
2. CCn1c2ccccc2c2cc(CN(C)C3CCN(C)CC3)ccc21
3. CCn1c2ccccc2c2cc(NC(=O)Cc3ccc(S(=O)(=O)N4CCOCC4)s3)ccc21

Reply:
["0.51 °C", "0.5 °C", "0.49 °C"]
